# System Under Test: biotinylated human IL-17A / AF647-labeled human IL-17RA (Homo sapiens, UniProt Q16552)
# Sequence (Q16552 24-155): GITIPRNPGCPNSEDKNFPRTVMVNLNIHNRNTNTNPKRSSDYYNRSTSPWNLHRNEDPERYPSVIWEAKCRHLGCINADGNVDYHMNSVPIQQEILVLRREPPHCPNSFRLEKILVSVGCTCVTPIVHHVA
# Assay Notes: Human IL-17A×IL-17RA TR-FRET assay
# Assay type: binding
# Particulars: TR-FRET, 5 nM IL-17A, 30 nM IL-17RA; read-out: IL17AA FRET/ IL17Rawt IC50
pIC50: −log10 of the molar value.
Parameter Measured: pIC50

The cases that follow already have their pIC50 on record.
Smi | pIC50
Cc1cc[n+]([O-])c(C)c1-c1ccc(NC(=O)[C@@H](NC(=O)c2ccc3n2CCNC3)C2CCC(F)(F)CC2)cc1 | 6.52
Cc1cc[n+]([O-])c(C)c1-c1ccc(NC(=O)[C@@H](NC(=O)c2ccc3n2CCNC3)C2CCCCC2)cc1 | 6.54
Cc1cc[n+]([O-])c(C)c1-c1ccc(NC(=O)[C@@H](NC(=O)c2cn[nH]c2C(C)C)C2CCCCC2)cc1 | 6.77

(I) Cc1cc[n+]([O-])c(C)c1-c1ccc(NC(=O)[C@@H](NC(=O)c2ccn3c2CNCC3)C2CCCCCC2)cc1
(II) Cc1c(-c2ccc(NC(=O)[C@@H](NC(=O)c3ccc4n3CCNC4)C3CCC(F)(F)CC3)cc2F)c(Cl)cc[n+]1[O-]
[ask] Two entries are listed, I and II . Which one carries the higher pIC50? Reply with the label of the item you choose.
[reply] II

(a) Cc1cc[n+]([O-])c(C)c1-c1ccc(NC(=O)[C@@H](NC(=O)c2ccnn2C)C(c2ccccc2)c2ccccc2)cc1
(b) Cc1cc[n+]([O-])c(C)c1-c1ccc(NC(=O)[C@@H](NC(=O)c2ccc3n2CCNC3)C2CCCCCC2)cc1
[ask] Of a and b , whose reported pIC50 is the larger number? Indicate your choice by writing its label.
[reply] a

* * *

# System Under Test: recombinant human IL-17AA (Homo sapiens)
# Assay Notes: IL-6 release from NHDF cells, IL-17AA plus TNF-α stimulation
# Type: cell-based
# Particulars: NHDF cells, IL-17AA 30 pM + TNF-α 6 pM, 24 hours, IL-6 by ELISA; read-out: IL17AA + TNF IC50 IL-6
Parameter Measured: IC50 (nM)

(A) Cc1cc[n+]([O-])c(C)c1-c1ccc(NC(=O)[C@@H](NC(=O)c2ccnn2C)C2CCCCCC2)nc1 [Example 148]
(B) Cc1cc[n+]([O-])c(C)c1-c1ccc(NC(=O)[C@@H](NC(=O)c2cnn(C)c2C)C2CCCCC2)cc1 [Example 167]
(C) CC(=O)N1CCn2c(ccc2C(=O)N[C@H](C(=O)Nc2ccc(-c3c(Cl)cc[n+]([O-])c3C)c(F)c2)C2CCCCC2)C1 [Example 187]
[ask] Can you order these entries from above by IC50? Start with the largest number and work down. The response must list the labels following the requested ordering.
[reply] B, A, C

* * *

Recorded pIC50 for the following compounds
# System Under Test: biotinylated human IL-17A / AF647-labeled human IL-17RA (Homo sapiens, UniProt Q16552)
# Assay Notes: Human IL-17A×IL-17RA TR-FRET assay
# Assay type: binding
# Particulars: IL17AA FRET/ IL17Rawt IC50, TR-FRET, biotinylated human IL-17A 5 nM, AF647-labeled human IL-17RA 30 nM
To interpret pIC50, take it as minus log10 of a concentration measured in moles per litre.

The examples below pair each entry with its known result.
Compound | Obs Value
Cc1cc[n+]([O-])c(C)c1-c1ccc(NC(=O)C(NC(=O)c2ccnn2C)C2CCC(C(F)(F)F)CC2)cc1F (stereo not drawn) | 6.87
CCn1nccc1C(=O)NC(C(=O)Nc1ccc(-c2c(Cl)cc[n+]([O-])c2C)c(F)c1)C1CCC(F)(F)CC1 (stereo not drawn) | 7.52

Please turn your attention to the following entry.
[ask] For the compound shown here, Cc1c(-c2ccc(NC(=O)C(NC(=O)c3ccnn3C)C3CC4C(C3)C4(F)F)cc2)c(Cl)cc[n+]1[O-] (single isomer, unassigned) [Example 54a] , give the reported pIC50.
[reply] 7.55
